system.under.test: TauT (taurine transporter, SLC6A6; TauT^WT) (Homo sapiens, UniProt P31641)
Construct: wild-type TauT expressed in Xenopus laevis oocytes for electrophysiology; cryo-EM sample details only in supplement
Sequence (P31641 1-620): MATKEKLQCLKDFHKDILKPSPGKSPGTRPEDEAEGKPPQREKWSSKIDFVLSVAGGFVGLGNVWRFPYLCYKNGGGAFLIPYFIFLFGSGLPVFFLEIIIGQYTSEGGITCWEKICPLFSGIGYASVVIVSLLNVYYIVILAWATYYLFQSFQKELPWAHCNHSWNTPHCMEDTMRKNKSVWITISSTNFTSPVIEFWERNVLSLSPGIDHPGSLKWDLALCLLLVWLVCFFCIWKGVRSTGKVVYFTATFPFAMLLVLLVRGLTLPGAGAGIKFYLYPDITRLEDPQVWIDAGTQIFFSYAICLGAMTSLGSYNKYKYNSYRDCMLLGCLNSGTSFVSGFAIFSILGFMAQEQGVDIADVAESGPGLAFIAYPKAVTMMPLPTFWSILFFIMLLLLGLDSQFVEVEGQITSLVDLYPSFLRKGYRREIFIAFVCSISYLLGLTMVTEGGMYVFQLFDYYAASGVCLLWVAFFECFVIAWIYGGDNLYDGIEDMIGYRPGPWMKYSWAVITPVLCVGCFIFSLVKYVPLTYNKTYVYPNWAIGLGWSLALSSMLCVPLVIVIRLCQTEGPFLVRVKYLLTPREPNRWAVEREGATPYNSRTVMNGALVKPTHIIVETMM
assay.explanation: Xenopus laevis oocytes, β-alanine-induced inward current
Type: cell-based
measure: EC50 (µM)
I only need the number, in µM, no unit after it.

Summary for this compound, NCCC(=O)O : EC50 is 5.6
